Origin of measurements: patent US20220184008A1

test: Phase I metabolism in liver microsomes; type: in vitro ADME; details: read-out: t½ in liver microsomes
Metric: half-life

[[record]]
query_smiles = "CN(C)S(=O)(=O)c1cc(C(=O)O)ccc1NCCCCCCCC(F)(F)F"
reading = "> 1 h"


---

tested on: NKCC1; assay: Calcium kinetic assay in primary cultures of immature hippocampal neurons; assay type: cell-based; conditions: 10 μM; immature neurons 3 DIV; Table 2
Metric: NKCC1 Inhibition % 10 μM Neurons Calcium kinetic assay

[[record]]
compound = "CCCCCCCCNc1ccc(C(=O)O)cc1S(=O)(=O)N(C)C [Compound 3.13]"
reading = "45%"

[[record]]
compound = "O=C(O)c1ccc(NCCCCCCCC(F)(F)F)c(S(=O)(=O)NC2CCCCC2)c1 [Compound 3.22]"
reading = "54%"

[[record]]
compound = "CC(C)(C)CCNc1ccc(C(=O)O)cc1S(N)(=O)=O [Compound 2.9]"
reading = "25%"

[[record]]
compound = "O=C(O)c1ccc(NCCCCCCCC(F)(F)F)c(S(=O)(=O)NC2CCCC2)c1 [Compound 3.21]"
reading = "51%"

[[record]]
compound = "CN(C)S(=O)(=O)c1cc(C(=O)O)ccc1NCCCC(F)(F)F [Compound 3.15]"
reading = "Inactive"

[[record]]
compound = "CNS(=O)(=O)c1cc(C(=O)O)ccc1NCCCCCCCC(F)(F)F [Compound 3.10]"
reading = "14%"

[[record]]
compound = "CCCCCCNc1ccc(C(=O)O)cc1S(=O)(=O)NC [Compound 3.7]"
reading = "7%"

[[record]]
compound = "O=C(O)c1ccc(NCCCCCCCC(F)(F)F)c(S(=O)(=O)N2CCCCC2)c1 [Compound 5.6]"
reading = "55%"

[[record]]
compound = "COCCCCNc1ccc(C(=O)O)cc1S(=O)(=O)N(C)C [Compound 3.19]"
reading = "Inactive"

